Known Kd of a selection of variants
B1: NELF-E aptamer (parent)
chain: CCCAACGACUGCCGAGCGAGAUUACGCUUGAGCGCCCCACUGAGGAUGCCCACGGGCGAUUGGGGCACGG

variants of: B1; test: HiTS-RAP; settings: with NELF-E (Drosophila)
# output: bare number, implied unit nM

Some variants with known Kd results, for comparison:
mutations="C6G U61G" endpoint_result=7
mutations="A5G G20A" endpoint_result=6.58
mutations="G7U A24G" endpoint_result=6.71
mutations=C51U endpoint_result=6.66
mutations="C6U C13U" endpoint_result=5.09

### Prompt Given C6G G55U , respond with its Kd.
### Response 6.23

### Prompt Please look at this variant and report its Kd: C17G U22G
### Response 4.82

### Prompt Please give measured Kd of the following entry: A4G U28G
### Response 6.58

### Prompt Fill in Kd for record A24G C25U
### Response 6.02

### Prompt Give Kd for the following variant: A21G
### Response 5.04

### Prompt For U10A U29G , write its Kd.
### Response 5.61

### Prompt Name the recorded Kd of the variant listed here: A31G G32A
### Response 5.29

### Prompt Identify measured Kd corresponding to C9G G18U
### Response 6.65

### Prompt Look up Kd of G7A G11U and report it.
### Response 7.32
